# Tested on: UACC-62 melanoma
# protocol-details: NCI tumour cell line growth inhibition, 48 h
Catalogue of TGI values

>  <molecule>
C(=N\Nc1nnc(-c2nnc(N/N=C/c3ccccc3)o2)o1)/c1ccccc1

>  <TGI>
> 10 µM

$$$$
>  <molecule>
CC1CC(=O)CC[C@@H]1OCc1ccccc1 (stereo partly specified)

>  <TGI>
> 100 µM

$$$$
>  <molecule>
O=C(CSCC(=O)N/N=C\c1cccc(Br)c1)N/N=C\c1cccc(Br)c1

>  <TGI>
29.4 µM

$$$$
>  <molecule>
CCC[CH2][Sn]1([CH2]CCC)[O]N=Cc2ccccc2[O]1

>  <TGI>
1.7 µM

$$$$
>  <molecule>
CCN(Cc1cccc(C)c1)c1ccc(CO)c(Cl)c1

>  <TGI>
1.11 µM

$$$$
>  <molecule>
BrCC[N+]12CCCN1CCC2

>  <TGI>
20.5 µM

$$$$
